- method_summary: gradient 5% acetonitrile 3 min, to 50% in 2 min, to 85% in 15 min, held 3 min, 100 µL/min
- condition_notes: column: Zorbax Extend-C18 2.1 x 50 mm; eluents: water / acetonitrile, 0.1% formic acid
assay_metric: RP-LC retention time (s)

Solved cases below.
compound	RP-LC retention time / s
Cc1csc(-c2cc(S(=O)(=O)N3CCc4ccccc4C3)c(C)s2)n1	1160
O=C(NCCN1CCOCC1)c1ccc2ccnc(N3CCN(C(=O)c4ccco4)CC3)c2c1	567
CC(C)=C(c1ccc(Cl)cc1)c1c(N)ncnc1N	705
CCCN1CCN(C(=O)C2CCN(S(=O)(=O)c3cc(-c4noc(CC)n4)sc3C)CC2)CC1	666

[I] COc1cc(NC(=O)C2CCCN(C(=O)c3cc(-c4ccncc4)n[nH]3)C2)cc(OC)c1OC (stereo not drawn)
[II] CCOc1ccc(NC(=O)c2cn(-c3cc(N4CCCCC4C)ncn3)cn2)cc1 (stereo not drawn)
Prompt: # min-compare on RP-LC retention time between I and II Lab log: write the label of the selected item as the result.
Completion: I
(I: 591 s, II: 1110 s)

[I] COCc1nncn1C1CCN(S(=O)(=O)c2ccc(C)cc2C)CC1
[II] CCCCOc1ccc(-c2nc(C3CC(=O)N(c4ccc(C)cc4)C3)no2)cc1 (stereo not drawn)
Prompt: I'd appreciate it if you could identify which of I and II has the greater RP-LC retention time. Your answer should be the label attached to the chosen record.
Completion: II
(II: 1310 s, I: 743 s)

* * *

- method_summary: gradient 5% acetonitrile 3 min, to 50% in 2 min, to 85% in 15 min, held 3 min, 100 µL/min
- condition_notes: column: Zorbax Extend-C18 2.1 x 50 mm; eluents: water / acetonitrile, 0.1% formic acid
assay_metric: RP-LC retention time (s)

Record excerpt, results attached:
compound	RP-LC retention time (s)
CCOC(=O)CNC(=O)N1CCC2(CC1)NC(=O)c1ccccc1O2	630
O=c1c2nc(-c3ccccc3)cn2ccn1-c1ccc(Cl)cc1	841
CCOc1ccccc1NC(=O)c1cncc(NS(=O)(=O)c2ccc(OC)cc2)c1	798

[A] Cc1ccccc1-c1noc(Cn2c(=O)n(Cc3ccco3)c(=O)c3ccccc32)n1
[B] COc1ccc(CCNC(=O)NCC2CCN(Cc3ccsc3)CC2)cc1
Prompt: Lab log: flag the item ( A or B ) with the smaller RP-LC retention time figure. When you have decided, please share the label of that item.
Completion: B

[A] COc1ccccc1NC(=O)C1CCCN(S(=O)(=O)c2cc(-c3noc(C)n3)cs2)C1 (stereo not given)
[B] Cc1ccnc(NC(=O)C2CC(=O)N(c3n[nH]c4ccccc34)C2)c1 (stereo not given)
Prompt: Kindly identify the item with the lower RP-LC retention time figure among these two: A and B Please identify the chosen entry by its label.
Completion: B

[a] O=C(NCCCN1CCCCC1)C1CCN(c2cncnc2N2CCCCC2)CC1
[b] COc1cc(OC)cc(-c2nnc(Cc3nc(-c4cccc(Cl)c4)no3)o2)c1
Prompt: Pick one: a or b . Which one has the lower reported RP-LC retention time? Bench note: the answer is the label of the chosen record.
Completion: a
(a: 569 s, b: 1130 s)

* * *

- method_summary: gradient 5% acetonitrile 3 min, to 50% in 2 min, to 85% in 15 min, held 3 min, 100 µL/min
- condition_notes: column: Zorbax Extend-C18 2.1 x 50 mm; eluents: water / acetonitrile, 0.1% formic acid
assay_metric: RP-LC retention time (s)

// solved cases for RP-LC retention time follow
compound	observed_result
COc1cccc(CNC(=O)c2nnc(-c3ccc(S(=O)(=O)N4CCOCC4)cc3)o2)c1	822
CN1CCCn2nc(C3CCN(S(=O)(=O)c4ccc5c(c4)OCCO5)CC3)cc2C1=O	718
Cc1cc(C)c(C(=O)N2CCC(CC(=O)NCCCN3CCCCCC3)CC2)[nH]1	594

[A] COc1ccc(/C=C2\CCCc3ccccc3C2=O)cc1
[B] CC1(C)SC(C)(C)N(C=O)C1C(=O)O (stereo not given)
Prompt: Returns: the argument ( A or B ) having the larger RP-LC retention time. Response format: the label of the selected entry.
Completion: A

* * *

- method_summary: gradient 5% acetonitrile 3 min, to 50% in 2 min, to 85% in 15 min, held 3 min, 100 µL/min
- condition_notes: column: Zorbax Extend-C18 2.1 x 50 mm; eluents: water / acetonitrile, 0.1% formic acid
assay_metric: RP-LC retention time (s)

molecule	assay_metric	observed_result
CC(C)Cn1cc(S(=O)(=O)Nc2ccc(F)cc2Cl)c2cccnc21	RP-LC retention time	1010
CCn1nccc1C(=O)N1CCC(Nc2ncnc3c2CCC3)CC1	RP-LC retention time	557
CCCN(C(=O)CC(=O)OC)c1nc(-c2ccc(C)cc2)cs1	RP-LC retention time	1160
Cc1ccc(S(=O)(=O)Nc2ccc3c(c2)CCC(=O)N3CC(C)C)cc1C	RP-LC retention time	939
COc1ccc(-n2nc(C)c3sc(N4CCCC(C(=O)NC5CCCC5)C4)nc32)cc1 (configuration not stated)	RP-LC retention time	1040

[1] O=C(C1CCCC1)N1CCCCC1c1nc(C2CC2)n[nH]1 (configuration not stated)
[2] COc1cc2c(cc1OC)C(COc1ccc(F)cc1)N(C(=O)C(C)(C)C)CC2 (configuration not stated)
Prompt: Of the pair 1 and 2 , name the member with the lesser recorded RP-LC retention time. Answer with the label corresponding to your selection.
Completion: 1
(1: 676 s, 2: 998 s)

* * *

- method_summary: gradient 5% acetonitrile 3 min, to 50% in 2 min, to 85% in 15 min, held 3 min, 100 µL/min
- condition_notes: column: Zorbax Extend-C18 2.1 x 50 mm; eluents: water / acetonitrile, 0.1% formic acid
assay_metric: RP-LC retention time (s)

[a] Cc1ccc(NS(=O)(=O)c2c(C)sc(C)c2-c2cc(C(F)(F)F)on2)cc1
[b] Cc1nc2ccc(C(=O)N(C)C)cc2nc1C
Prompt: Compare a and b and name the one whose reported RP-LC retention time is smaller. Return value: the label identifying the chosen record.
Completion: b
(b: 618 s, a: 1190 s)

[P] CCC(=O)N1CCc2c([nH]c3ccccc23)C12C(=O)Nc1ccc(Br)cc12 (stereo not drawn)
[Q] Cc1ccc(CNC(=O)C2CCCN(c3cc(=O)n(C)c(=O)n3C)C2)o1 (stereo not drawn)
Prompt: Identify the entry with the smaller RP-LC retention time: P or Q . API: response body contains the label of the selected item.
Completion: Q

* * *

- method_summary: gradient 5% acetonitrile 3 min, to 50% in 2 min, to 85% in 15 min, held 3 min, 100 µL/min
- condition_notes: column: Zorbax Extend-C18 2.1 x 50 mm; eluents: water / acetonitrile, 0.1% formic acid
assay_metric: RP-LC retention time (s)

Check out these entries, answers already filled in.
compound	RP-LC retention time / s
Cc1cccc(CNC(=O)c2cc3n(n2)CC(C)(C(=O)NCc2ccccc2)N(C)C3=O)c1 (configuration not stated)	732
COc1cccc(C(=O)N2CCCC(c3nnc(-c4ccccc4)o3)C2)c1 (configuration not stated)	822
Cc1ccnc(N2CCCC(C(=O)NCCCN3CCN(c4cc(Cl)ccc4C)CC3)C2)n1 (configuration not stated)	670
O=C(NCCCn1ncccc1=O)c1ccc(S(=O)(=O)N2CCCC2)cc1	621
CO[C@@H]1[C@H](OC(=O)NC(=O)CCl)CC[C@]2(CO2)[C@H]1[C@@]1(C)O[C@@H]1CC=C(C)C	692
Cn1c(=O)c(N2CCC(NC(=O)Nc3ccc(Cl)cc3)CC2)nc2ccccc21	904
CC(C)CC(=O)N1CCC(Oc2nccnc2N(C)C)C1 (configuration not stated)	691
Cc1ccc(Cl)cc1NC(=O)CSc1nnc2c3cc(-c4ccc(F)cc4)nn3ccn12	618
CN1C(=O)C(CC(=O)NCC2CCCCC2)Sc2ncccc21 (configuration not stated)	761
CC(=O)N1CCc2ccccc2C1C(=O)NC(C)C (configuration not stated)	672

[P] CSc1ccc(CNC(=O)Cn2c(C)cc(-c3nnc(C4CC4)o3)c2C)cc1
[Q] CCc1cc(-c2csc(S(=O)(=O)N3CCN(c4ccc(Cl)cc4)CC3)c2)on1
Prompt: // which entry reports the smaller RP-LC retention time, P or Q ? Use the label to indicate which entry you chose.
Completion: P
(P: 816 s, Q: 1200 s)

[P] CCN1C(=O)COc2ccc(-c3nc(NC(=O)c4ccc(F)cc4)sc3C)cc21
[Q] COc1ccc(NC(=O)C2CCN(c3cc(N4CCCC4)ncn3)CC2)cc1OC
Prompt: For the pair P and Q , which member has the lower RP-LC retention time number? State your choice using its label.
Completion: Q

[P] O=C(C1CCC1)N1CCCCCC1CN1CCOCC1 (configuration not stated)
[Q] Cc1ccccc1CN1N=C(C(=O)N2CCC(C)CC2)S(=O)(=O)c2ccccc21
Prompt: RP-LC retention time comparison. Which is larger, P or Q ? Identify your selection by its label.
Completion: Q

[a] COc1ccc(-c2nnc(-c3ccc(-n4ccnc4)nc3)o2)c(OC)c1
[b] N#Cc1ccc(NC(=O)Cn2cccc(-c3nc(-c4ccc(Br)cc4)no3)c2=O)cc1
Prompt: Hi, I'm comparing a with b and wondering which one has the bigger number for RP-LC retention time. Any idea? Mark your answer with the label of the selected entry.
Completion: b
